Attribution: ChEMBL document CHEMBL4004825

Assay: Clearance in rat in absence of CYP450 inhibitor ABT
Format: ADME
clearance listing for selected compounds.
Give the value, in units of mL/min/kg, as a plain number.

Noted for C=CC(=O)N1CC[C@H]2CCN(c3ncnc4[nH]ccc34)[C@H]2C1 : its clearance reads 109

Let's switch to this compound now.
// sample CC(=O)N1CC[C@H]2CCN(c3ncnc4[nH]ccc34)[C@H]2C1 , its clearance was 76

* * *

Experiment: Volume of distribution at steady state in monkey
Type: ADME, Macaca mulatta
Conditions: rhesus monkey, in vivo; read-out: Vdss
OBSERVABLE: Vd (L/kg)
Lab book: enter the figure in L/kg, no units written.

The measured Vd associated with C=CC(=O)N1C[C@H](Nc2ncnc3[nH]ccc23)CC[C@@H]1C reads 2.6
